Listed here are compounds together with their documented Emax.
- Test system: Panc 05.04 cells (pancreatic cancer cells; Q699H and K700E mutations in SF3B1)
- procedure-details: Cell viability assay (CellTiter-Glo, 72 hr), Panc 05.04 cells
- Format: cell-based
- condition-context: Panc 05.04 cells (mutant SF3B1); maximum achievable response in tested dose range, negative value = cellular lethality; read-out: Panc 05.04 (mt SF3B1 cells) Emax (%)
Provide the reading as a plain figure in %.

INPUT: Suppose we examine the compound C/C(=C\C=C\[C@@H](C)COC(=O)N1CCC[C@H]1CO)[C@H]1OC(=O)C[C@H](O)CC[C@H](C)[C@@H](OC(=O)N2CCN(C)CC2)/C=C/[C@@H]1C ; what Emax value has been reported?
OUTPUT: -79

INPUT: Suppose we examine the compound C/C(=C\C=C\C1(COC(=O)N2CCCC2)CC1)[C@H]1OC(=O)C[C@H](O)CC[C@@](C)(O)[C@@H](OC(=O)N2CCN(C3CCCCCC3)CC2)/C=C/[C@@H]1C ; what Emax value has been reported?
OUTPUT: -24.7

INPUT: Suppose we examine the compound C/C(=C\C=C\[C@@H](C)c1ccccn1)[C@H]1OC(=O)C[C@H](O)CC[C@@](C)(O)[C@@H](OC(=O)N2CCCN(C)CC2)/C=C/[C@@H]1C ; what Emax value has been reported?
OUTPUT: -23.1
